- Test description: p53 small molecule agonists, cell-based qHTS assay with human liver microsomes: qHTS cell viability counter screen (AID 1963579); further: nearly all actives have a fitted effect of over 45% in size
- Protocol conditions: p53RE-bla HCT-116 viability, ATP luminescence, 16 h, HLM; series mostly up to 66 µM
Inconclusive results are not listed. Calls of active or inactive are those of the source. The call rests on the fitted dose curve.
Outcome codes: active, inactive

Compound	Category
CCCc1cc(=O)[nH]c(=S)[nH]1	inactive
CCNc1cccc(C)c1	inactive
CC(=O)OC/C=C(C)/C=C/C=C(C)/C=C/C1=C(C)CCCC1(C)C	inactive
C/C=C/C(=O)N(CC)c1ccccc1C	inactive
CCCCOC(=O)CCCCCCCCC(=O)OCCCC	inactive
Nc1cc(Cl)c(-c2cc(Cl)c(N)cc2Cl)cc1Cl	active
Oc1ccc2ccccc2c1N=Nc1ccccc1	inactive
CC(=O)Nc1ccc(C(=O)O)cc1	inactive
CCCCOCCO	inactive
O=c1n(CC2CO2)c(=O)n(CC2CO2)c(=O)n1CC1CO1 (centres undefined)	inactive
COc1ccccc1[N+](=O)[O-]	inactive
CNC(=S)N(C)C	inactive
CCC(C)(O)CCCC(C)C (centres undefined)	inactive
CCCCCCCCC	inactive
C1CCCNCC1	inactive
CCCCCCCC(=O)OCC(O)CO (centres undefined)	inactive
F[B-](F)(F)F	inactive
CC(=O)c1ccccn1	inactive
O=C1O[C@H]([C@H](O)CO)C(O)=C1O	inactive
COCCc1ccc(OCC(O)CNC(C)C)cc1 (centres undefined)	inactive
ClC1=C(Cl)C(Cl)(Cl)C(Cl)=C1Cl	inactive
O=C1CCCCCN1	inactive
ClC/C=C/CCl	inactive
CCOCCO	inactive
O=C(/C=C/C=C/c1ccc2c(c1)OCO2)N1CCCCC1	inactive
OCCc1ccccc1	inactive
CC1=C(C)S(=O)(=O)CCS1(=O)=O	inactive
c1ccc2cc3c(ccc4ccccc43)cc2c1	inactive
CCCCC/C(C=O)=C\c1ccccc1	inactive
Cc1occc(=O)c1O	inactive
O=C(O)c1[nH]n(-c2ccc(S(=O)(=O)O)cc2)c(=O)c1N=Nc1ccc(S(=O)(=O)O)cc1	inactive
C[C@H]1C[C@@H]2[C@H]([C@@H](O)C[C@@]3(C)[C@H]2CC[C@]3(O)C(=O)CO)[C@@]2(C)C=CC(=O)C=C12	inactive
Cc1cnc(NC(=O)C2=C(O)c3ccccc3S(=O)(=O)N2C)s1	inactive
NC(=S)NNC(N)=S	inactive
C=CCc1ccc(O)c(OC)c1	inactive
C[C@](N)(Cc1ccc(O)c(O)c1)C(=O)O	inactive
CC1=NN(c2ccccc2)C(=O)C1	inactive
CC/C(=C(\c1ccccc1)c1ccc(OCCN(C)C)cc1)c1ccccc1	inactive
CCCCCCC(C)O (centres undefined)	inactive
C=CCCCCCCCCC(=O)O	inactive
O=C(O)CC(C(=O)O)C(CC(=O)O)C(=O)O (centres undefined)	inactive
COCCOCCOC	inactive
C=CC(=O)OCCOCCOCCOCCOC(=O)C=C	inactive
CC(=O)CC(=O)N(C)C	inactive
CC(C)Cc1ccccc1	inactive
S=c1nc[nH]c2nc[nH]c12	inactive
CNNCc1ccc(C(=O)NC(C)C)cc1	inactive
NCCN1CCNCC1	inactive
CC(C)CC(=O)CC(C)C	inactive
Cc1ccccc1C(OCCN(C)C)c1ccccc1 (centres undefined)	inactive
C[Si](C)(C)N[Si](C)(C)C	inactive
C=CCNC(N)=S	inactive
C/C=C(C)/C=C/C=C(C)C	inactive
C[C@]12C=CC(=O)C=C1CC[C@@H]1[C@@H]2[C@@H](O)C[C@@]2(C)[C@H]1CC[C@]2(O)C(=O)CO	inactive

---

- Test description: p53 small molecule agonists, cell-based qHTS assay (AID 1963582)
- Protocol conditions: HCT-116 p53RE-bla reporter, beta-lactamase FRET ratio, 16 h; series mostly up to 66 µM
Results filed as inconclusive are left out. Active and inactive are the calls of the source. The call rests on the fitted dose curve; in most records, active means well fitted activation curve with a large enough effect in the signal ratio in the repeat runs (not every such curve was filed as active); inconclusive means weak or mixed curves; inactive means flat fitted curve, though single readings scatter; the % refers to the signal ratio.
Outcomes: y (active), n (inactive)

Compound	Category
CC(C)=CCCC(C)CCO (stereo not given)	n
Oc1c(Cl)cc(Cl)cc1Sc1cc(Cl)cc(Cl)c1O	n
Fc1ccc(Br)cc1	n
CC(=O)CC/C=C(\C)CCC=C(C)C	n
c1ccc(OCCOc2ccccc2)cc1	n
O=C(O)CC(C(=O)O)C(CC(=O)O)C(=O)O (stereo not given)	n
CCCc1cc(=O)[nH]c(=S)[nH]1	n
Nc1ccc(Nc2ccccc2)cc1	n
c1ccc2cc3c(ccc4ccccc43)cc2c1	n
CC(C)(C)c1cccc(C(C)(C)C)c1O	n
C#C[C@]1(O)CC[C@H]2[C@@H]3CCc4cc(O)ccc4[C@H]3CC[C@@]21C	y
Cc1cccc(C)c1O	n
CCCNC(=O)NS(=O)(=O)c1ccc(Cl)cc1	n
C[C@H]1C[C@H]2[C@@H]3CCC4=CC(=O)C=C[C@]4(C)[C@@]3(F)[C@@H](O)C[C@]2(C)[C@@]1(O)C(=O)CO	n
OC[C@H]1O[C@H](O[C@]2(CCl)O[C@H](CCl)[C@@H](O)[C@@H]2O)[C@H](O)[C@@H](O)[C@H]1Cl	n
Cc1cn([C@H]2C[C@H](N=[N+]=[N-])[C@@H](CO)O2)c(=O)[nH]c1=O	n
C=C(C)C(=O)OCC(CC)(COC(=O)C(=C)C)COC(=O)C(=C)C	n
CCCCC(CC)COC(=O)CS (stereo not given)	n
Nc1ccc(S(=O)(=O)Nc2cnc3ccccc3n2)cc1	n
COc1ccc2[nH]cc(CCNC(C)=O)c2c1	n
CCCCCCCCOc1ccc(C(=O)c2ccccc2)c(O)c1	n
CC(=O)C(C)C	n
c1ccc2c(c1)ccc1cc3c(ccc4ccccc43)cc12	n
CC[Si](OC(C)=O)(OC(C)=O)OC(C)=O	n
O=C(O)c1cccc([N+](=O)[O-])c1	n
CC(=O)OCC(=O)[C@@]12N=C(C)O[C@@H]1C[C@H]1[C@@H]3CCC4=CC(=O)C=C[C@]4(C)[C@H]3[C@@H](O)C[C@@]12C	n
CC(O)COc1ccccc1 (stereo not given)	n
COC(=O)CC(=O)OC	n
Cc1ccc(C)c(O)c1	n
CCCN(CCC)C(=O)SCC	n
CCCCCCCC(=O)OCC(COC(=O)CCCCCCC)OC(=O)CCCCCCC	n
CCCCCCCCCCCCO	n
O=C(OCCOCCOC(=O)c1ccccc1)c1ccccc1	n
CC(=O)c1ccccn1	n
COC(=O)c1ccc(O)cc1	n
CCCOC(=O)NCCCN(C)C	n
CCCCOCCOCCO	n
O=C1OC(c2ccc(O)cc2)(c2ccc(O)cc2)c2ccccc21	n
OCc1cccc(Oc2ccccc2)c1	n
O=C(O)CCCCCCCCC(=O)O	n
Cc1ccc2c(n1)Oc1ccc(C(C)C(=O)OCC(=O)N(C)C)cc1C2 (stereo not given)	n
c1ccc(Oc2ccccc2)cc1	n
COc1ccccc1OCC(O)CO (stereo not given)	n
O=C(O)CCCCC1CCSS1 (stereo not given)	n
Nc1c2c(nc3ccccc13)CCCC2	n
C=CN1CCCC1=O	n
C[C@]12CC[C@@H]3c4ccc(O)cc4CC[C@H]3[C@@H]1C[C@@H](O)[C@@H]2O	n
CC(O)C(=O)O (stereo not given)	n
CC(C)(N)CO	n
Oc1ccc2ccccc2c1N=Nc1ccccc1	n

---

- Experimental target: Muscarinic acetylcholine receptor M1 (Homo sapiens)
- Test description: Cholinergic receptor muscarinic 1 (CHRM1) small molecule antagonists, cell-based qHTS assay (AID 1963588); further: nearly all actives have a fitted effect of over 40% in size
- Protocol conditions: CHRM1-CHO antagonist mode, calcium flux fluorescence; series mostly up to 61.5 µM
Results filed as inconclusive are left out. Activity calls are given as the source filed them. Calls come from the whole dose curve. Peptide text beside a SMILES is read from it.
Possible outcomes: active, inactive

Compound	Category
O=C(O)c1ccccc1Nc1cccc(C(F)(F)F)c1	inactive
CCNc1cccc(C)c1	inactive
Nc1cc([N+](=O)[O-])ccc1C(=O)O	inactive
CC(C)[N+](C)(CCOC(=O)C1c2ccccc2Oc2ccccc21)C(C)C	inactive
CCCCC(CC)COC(=O)C(C#N)=C(c1ccccc1)c1ccccc1 (stereo unspecified)	inactive
CCO[Si](CCCNC(N)=O)(OCC)OCC	inactive
COC(=O)C(C)Oc1ccc(Oc2ncc(C(F)(F)F)cc2Cl)cc1 (stereo unspecified)	inactive
c1ccc2cc(Nc3ccc(Nc4ccc5ccccc5c4)cc3)ccc2c1	inactive
C=C(C)C1CC=C(C)C(OC(C)=O)C1 (stereo unspecified)	inactive
CCCCNC(N)=O	inactive
COC(=O)[C@H](Cc1ccccc1)NC(=O)[C@@H](N)CC(=O)O (H-Asp-Phe-OMe)	inactive
CC(=O)C(=O)O	inactive
COc1ccccc1[N+](=O)[O-]	inactive
COC(=O)CCCCC(=O)OC	inactive
CC1(C)CC(N=C=O)CC(C)(CN=C=O)C1 (stereo unspecified)	active
NCCOCCO	inactive

---

- Test description: cAMP Responsive Elements (CRE) small molecule antagonists, cell-based qHTS assay (AID 1963591)
- Protocol conditions: CRE-bla HEK293T, beta-lactamase FRET ratio; series mostly up to 92.4 µM
Records with an inconclusive call do not appear. The source made the active and inactive calls. The call rests on the fitted dose curve; in most records, active means well fitted inhibition curve with a large enough effect in the signal ratio in the repeat runs (not every such curve was filed as active); inconclusive means weak or mixed curves, or effect the other way; inactive means flat fitted curve, though single readings scatter; the % refers to the signal ratio.
Possible outcomes: active, inactive

Compound	Category
O=C(O)CN(CC(=O)O)CC(=O)O	inactive
COCCOCCOCCO	inactive
c1ccc2n[nH]nc2c1	inactive
CCCCCCCCO	inactive
Cc1cc(Cc2ccc(N)c(C)c2)ccc1N	inactive
Oc1ccc(Cl)cc1Cc1cc(Cl)ccc1O	active
O=C(O)CC(O)C(=O)O (stereo unspecified)	inactive
CC1(C)OC(=O)NC1=O	inactive
COCC(C)N (stereo unspecified)	inactive
C[Si](O[Si](C)(C)C)O[Si](C)(C)C	inactive
COC(=O)CCCC(=O)OC	inactive
